- Method: Liver microsome metabolism stability, human liver microsome
- Format: in vitro ADME
- Condition: 0.5 mg protein/mL, test sample 1 μM, β-NADPH
Under this convention, class 1 denotes Residual content (%) after 60 minutes of incubation strictly below 50% and class 0 denotes Residual content (%) after 60 minutes of incubation at or above 50%.

Study these solved cases before continuing.
Req: is_below(Residual content (%) after 60 minutes of incubation, 50%) for O=C(O)c1ccc2nc(N3C[C@H]4C[C@@H]3C[C@@H]4OCc3c(-c4c(Cl)cccc4Cl)noc3C3CC3)sc2c1 (racemic) [Compound 2] ?
Resp: class 0

Req: is_below(Residual content (%) after 60 minutes of incubation, 50%) for Cc1cc(C(=O)O)cc2sc(N3C[C@H]4C[C@@H]3C[C@@H]4OCc3c(-c4c(Cl)cccc4Cl)noc3C3CC3)nc12 (racemic) [Compound 5] ?
Resp: class 1

Req: is_below(Residual content (%) after 60 minutes of incubation, 50%) for O=C(O)c1cc(F)c2nc(N3C[C@@H]4C[C@H]3C[C@H]4OCc3c(-c4ccccc4OC(F)(F)F)noc3C3CC3)sc2c1 [Compound 8] ?
Resp: class 0

Req: is_below(Residual content (%) after 60 minutes of incubation, 50%) for O=C(O)c1cc(F)c2nc(N3C[C@H]4C[C@@H]3C[C@@H]4OCc3c(-c4c(Cl)cccc4Cl)noc3C3CC3)sc2c1 (racemic) [Compound 4] ?
Resp: class 0

Next:
Req: is_below(Residual content (%) after 60 minutes of incubation, 50%) for O=C(O)c1ccc2nc(N3C[C@@H]4C[C@H]3C[C@H]4OCc3c(-c4c(Cl)cccc4Cl)noc3C3CC3)sc2c1 [Compound 2-1] ?
Resp: class 0

Req: is_below(Residual content (%) after 60 minutes of incubation, 50%) for O=C(O)c1ccc2nc(N3[C@@H]4CC[C@H]3C[C@@H](OCc3c(-c5c(Cl)cccc5Cl)noc3C3CC3)C4)sc2c1 [Compound 30-70, reference compound] ?
Resp: class 1

---

- System: BSEP mRNA in HepG2 cells
- Method: Relative expression of BSEP mRNA in HepG2 cells (qPCR), Experimental Example 1
- Format: cell-based, human
- Condition: Table 2; 0.3 μM, 24 hrs; expression under 3 μM of PX-104 as 100%
Attribute measured: relative expression of BSEP mRNA in HepG2 cells (%)
Quick reminder: number only, in %, skip the unit.

For orientation, consider the following solved cases.
Req: Supply relative expression of BSEP mRNA in HepG2 cells value. Item: COc1cc(C(=O)O)cc2sc(N3C[C@H]4C[C@@H]3C[C@@H]4OCc3c(-c4c(Cl)cccc4Cl)noc3C3CC3)nc12 (racemic)
Resp: 121

Req: Supply relative expression of BSEP mRNA in HepG2 cells value. Item: O=C(O)c1ccc(C2CC2c2ccc(OCc3c(-c4c(Cl)cccc4Cl)noc3C3CC3)cc2Cl)cc1 (stereo not shown) [PX-104, reference compound]
Resp: 45

Req: Supply relative expression of BSEP mRNA in HepG2 cells value. Item: O=C(O)c1cc(F)c2nc(N3C[C@H]4C[C@@H]3C[C@@H]4OCc3c(-c4c(Cl)cccc4Cl)noc3C3CC3)sc2c1 (racemic)
Resp: 97

Now for the molecule whose relative expression of BSEP mRNA in HepG2 cells we want.
Req: Supply relative expression of BSEP mRNA in HepG2 cells value. Item: Cc1cc(C(=O)O)cc2sc(N3C[C@H]4C[C@@H]3C[C@@H]4OCc3c(-c4c(Cl)cccc4Cl)noc3C3CC3)nc12 (racemic)
Resp: 103

---

- Tested on: BSEP mRNA in HepG2 cells
- Method: Relative expression of BSEP mRNA in HepG2 cells (qPCR), Experimental Example 1
- Type: cell-based, human
- Condition: Table 1; 3 μM, 24 hrs; expression under 3 μM of PX-104 as 100%
Below, each entry is listed with its recorded relative expression of BSEP mRNA in HepG2 cells.
Quick reminder: number only, in %, skip the unit.

For orientation, consider the following solved cases.
Req: Supply relative expression of BSEP mRNA in HepG2 cells value. Item: O=C(O)c1ccc2nc(N3C[C@@H]4C[C@H]3C[C@H]4OCc3c(-c4c(Cl)cccc4Cl)noc3C3CC3)sc2c1
Resp: 185

Req: Supply relative expression of BSEP mRNA in HepG2 cells value. Item: O=C(O)c1ccc2nc(N3[C@@H]4CC[C@H]3C[C@@H](OCc3c(-c5c(Cl)cccc5Cl)noc3C3CC3)C4)sc2c1 [Compound 30-70, reference compound]
Resp: 146

Req: Supply relative expression of BSEP mRNA in HepG2 cells value. Item: O=C(O)c1ccc(C2CC2c2ccc(OCc3c(-c4c(Cl)cccc4Cl)noc3C3CC3)cc2Cl)cc1 (stereo not shown) [PX-104, reference compound]
Resp: 100

Now for the compound whose relative expression of BSEP mRNA in HepG2 cells we want.
Req: Supply relative expression of BSEP mRNA in HepG2 cells value. Item: O=C(O)c1ccc2nc(N3C[C@H]4C[C@@H]3C[C@@H]4OCc3c(-c4c(Cl)cccc4Cl)noc3C3CC3)sc2c1 (racemic)
Resp: 179

---

- Method: Liver microsome metabolism stability, rat liver microsome
- Assay type: in vitro ADME, SD rat
- Condition: 0.5 mg protein/mL, test sample 1 μM, β-NADPH
Attribute measured: Residual content (%) after 60 minutes of incubation
Quick reminder: number only, in %, skip the unit.

Req: Supply Residual content (%) after 60 minutes of incubation value. Item: O=C(O)c1ccc2nc(N3C[C@H]4C[C@@H]3C[C@@H]4OCc3c(-c4c(Cl)cccc4Cl)noc3C3CC3)sc2c1 (racemic)
Resp: 94

Req: Supply Residual content (%) after 60 minutes of incubation value. Item: Cc1cc(C(=O)O)cc2sc(N3C[C@H]4C[C@@H]3C[C@@H]4OCc3c(-c4c(Cl)cccc4Cl)noc3C3CC3)nc12 (racemic)
Resp: 49

Req: Supply Residual content (%) after 60 minutes of incubation value. Item: O=C(O)c1ccc2nc(N3C[C@@H]4C[C@H]3C[C@H]4OCc3c(-c4c(Cl)cccc4Cl)noc3C3CC3)sc2c1
Resp: 77
